The origin of these recorded values is ChEMBL document CHEMBL1130595.

# STUDY SYSTEM: D(2) dopamine receptor (Rattus norvegicus)
Ki by entry:
Output spec: scalar in nM, unitless text.

Completed entries (count: 3):
{"ITEM SMILES": "O=C1Cc2c(ccc(Cl)c2N2CCN(Cc3ccccc3)CC2)N1", "Ki [nM]": 403}
{"ITEM SMILES": "O=C1Cc2c(cccc2N2CCN(Cc3ccccc3)CC2)N1", "Ki [nM]": 8.1}
{"ITEM SMILES": "Brc1ccc(N2CCN(Cc3ccccc3)CC2)c2cc[nH]c12", "Ki [nM]": 12.2}

Let us examine a further case.
input: Provide the documented Ki with D(2) dopamine receptor (Rattus norvegicus) as the system for c1ccc(CN2CCN(c3cccc4[nH]cnc34)CC2)cc1
output: 107

* * *

For reference, pKi measured on D(2) dopamine receptor (Rattus norvegicus, UniProt P61169):
Remember the convention: pKi equals -log10 of concentration in molar.

{"ITEM SMILES": "FC(F)(F)c1nc2c(N3CCN(Cc4ccccc4)CC3)cccc2[nH]1", "STUDY SYSTEM": "D(2) dopamine receptor (Rattus norvegicus, UniProt P61169)", "pKi": 9.29}

input: Provide the documented pKi with D(2) dopamine receptor (Rattus norvegicus, UniProt P61169) as the system for O=C1Cc2c(cccc2N2CCN(Cc3ccccc3)CC2)N1
Sequence (P61169 whole entry): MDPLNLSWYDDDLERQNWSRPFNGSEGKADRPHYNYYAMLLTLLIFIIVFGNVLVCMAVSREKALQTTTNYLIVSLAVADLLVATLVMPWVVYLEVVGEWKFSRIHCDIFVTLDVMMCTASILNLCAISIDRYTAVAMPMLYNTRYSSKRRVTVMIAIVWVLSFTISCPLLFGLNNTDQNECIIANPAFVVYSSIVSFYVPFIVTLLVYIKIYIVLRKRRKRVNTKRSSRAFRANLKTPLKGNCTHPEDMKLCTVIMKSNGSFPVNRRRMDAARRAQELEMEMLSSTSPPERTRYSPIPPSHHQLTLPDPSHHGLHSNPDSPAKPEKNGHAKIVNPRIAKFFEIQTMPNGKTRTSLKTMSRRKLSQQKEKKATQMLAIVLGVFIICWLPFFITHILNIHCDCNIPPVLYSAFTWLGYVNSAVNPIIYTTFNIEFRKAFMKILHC
output: 9.25

input: Provide the documented pKi with D(2) dopamine receptor (Rattus norvegicus, UniProt P61169) as the system for c1ccc(CN2CCN(c3cccc4[nH]cnc34)CC2)cc1
output: 8.01

input: Provide the documented pKi with D(2) dopamine receptor (Rattus norvegicus, UniProt P61169) as the system for O=C1Cc2c(ccc(Cl)c2N2CCN(Cc3ccccc3)CC2)N1
output: 7.07

input: Provide the documented pKi with D(2) dopamine receptor (Rattus norvegicus, UniProt P61169) as the system for Clc1ccc2[nH]ccc2c1N1CCN(Cc2ccccc2)CC1
output: 8.04

input: Provide the documented pKi with D(2) dopamine receptor (Rattus norvegicus, UniProt P61169) as the system for Brc1ccc(N2CCN(Cc3ccccc3)CC2)c2cc[nH]c12
output: 7.57

* * *

# STUDY SYSTEM: D(2) dopamine receptor (Homo sapiens, UniProt P14416)
# Sequence (P14416 whole entry): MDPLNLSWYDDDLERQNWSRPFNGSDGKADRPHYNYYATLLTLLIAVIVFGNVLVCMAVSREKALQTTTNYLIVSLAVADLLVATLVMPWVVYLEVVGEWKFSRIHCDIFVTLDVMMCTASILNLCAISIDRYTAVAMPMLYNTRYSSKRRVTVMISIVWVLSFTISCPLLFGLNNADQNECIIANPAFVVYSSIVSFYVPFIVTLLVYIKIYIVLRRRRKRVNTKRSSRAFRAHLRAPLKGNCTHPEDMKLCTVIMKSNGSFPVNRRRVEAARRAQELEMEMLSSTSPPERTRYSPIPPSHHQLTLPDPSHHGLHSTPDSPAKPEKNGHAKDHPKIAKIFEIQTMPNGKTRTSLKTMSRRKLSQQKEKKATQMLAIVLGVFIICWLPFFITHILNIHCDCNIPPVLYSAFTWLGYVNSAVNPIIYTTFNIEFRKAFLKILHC
# ASSAY COMMENT: Affinity towards human Dopamine receptor D2 expressed in CHO cells using [3H]spiperone
pKi: −log10 of the molar value.
Outcome: met for pKi of at least 7; not met for anything lower.

Worked set:
{"ITEM SMILES": "O=C1Cc2c(ccc(Cl)c2N2CCN(Cc3ccccc3)CC2)N1", "ASSIGNED LABEL": "not met"}
{"ITEM SMILES": "FC(F)(F)c1nc2c(N3CCN(Cc4ccccc4)CC3)cccc2[nH]1", "ASSIGNED LABEL": "met"}
{"ITEM SMILES": "Brc1ccc(N2CCN(Cc3ccccc3)CC2)c2cc[nH]c12", "ASSIGNED LABEL": "met"}

input: Record c1ccc(CN2CCN(c3cccc4[nH]cnc34)CC2)cc1 ; criterion: pKi no lower than 7. Met?
output: not met

input: Record O=C1Cc2c(cccc2N2CCN(Cc3ccccc3)CC2)N1 ; criterion: pKi no lower than 7. Met?
output: met

* * *

# STUDY SYSTEM: D(2) dopamine receptor (Homo sapiens)
# ASSAY COMMENT: Ratio of the affinity against D2 receptor at low antagonist state to that of D2 receptor at high agonist state
# Type: functional
VALUE TYPE: Ratio
Respond with the number and no other words.

{"ITEM SMILES": "Brc1ccc(N2CCN(Cc3ccccc3)CC2)c2cc[nH]c12", "Ratio": 0.5}
{"ITEM SMILES": "Clc1ccc2[nH]ccc2c1N1CCN(Cc2ccccc2)CC1", "Ratio": 5}

Let us examine a further case.
input: Provide the documented Ratio with D(2) dopamine receptor (Homo sapiens) as the system for FC(F)(F)c1nc2c(N3CCN(Cc4ccccc4)CC3)cccc2[nH]1
output: 6
